These measurements were taken from paper PMC9251316.

# Substrate: CC(=O)Oc1ccc([N+](=O)[O-])cc1
# procedure.details: purified protein
# Assay type: biochemical, Dorea formicigenerans
# condition.context: 10 mM Tris-HCl pH 8.4, 2.5% Triton X-100, 40 °C
readout: Km (µM)
Form entry: value (µM) — number only.

These recorded examples may help you get a feel for the data.
DfFAE (Dorea formicigenerans; N156A) (protein, E. coli T7; trimeric by SEC (117 kDa)) MNQKKECMDVHVNGLKFHVQTFGSGVPIIMIMGLGAPGDKWKHNYELLSKWFWCIVPDNRGAGLSDKPEAESYTTEQMADDIIGIMDALDIKKAHVMGVSMGGAIAQQVALKVPDRVLSLILTSTFASVSPAFKKALNLICELKEDTDPAVLKQLALWMTYGQYTQIHHPEKIEKSIEEDAAYPYPMPVYAYKAQCGACLSHNTAGRLHELKMPVLIAAGAKDLFMNIEKTMELVHGIPQAEFYLAPEGGHVHQWEYPEPYDSVVVGFLMKHTN = 644.7
DfFAE (Dorea formicigenerans) (protein, E. coli T7; trimeric by SEC (117 kDa)) MNQKKECMDVHVNGLKFHVQTFGSGVPIIMIMGLGAPGDKWKHNYELLSKWFWCIVPDNRGAGLSDKPEAESYTTEQMADDIIGIMDALDIKKAHVMGVSMGGAIAQQVALKVPDRVLSLILTSTFASVSPAFKKALNLICELKEDTDPAVLKQLNLWMTYGQYTQIHHPEKIEKSIEEDAAYPYPMPVYAYKAQCGACLSHNTAGRLHELKMPVLIAAGAKDLFMNIEKTMELVHGIPQAEFYLAPEGGHVHQWEYPEPYDSVVVGFLMKHTN = 572

Next item in the queue.
For the protein DfFAE (Dorea formicigenerans; W255A) (protein, E. coli T7; trimeric by SEC (117 kDa)) MNQKKECMDVHVNGLKFHVQTFGSGVPIIMIMGLGAPGDKWKHNYELLSKWFWCIVPDNRGAGLSDKPEAESYTTEQMADDIIGIMDALDIKKAHVMGVSMGGAIAQQVALKVPDRVLSLILTSTFASVSPAFKKALNLICELKEDTDPAVLKQLNLWMTYGQYTQIHHPEKIEKSIEEDAAYPYPMPVYAYKAQCGACLSHNTAGRLHELKMPVLIAAGAKDLFMNIEKTMELVHGIPQAEFYLAPEGGHVHQAEYPEPYDSVVVGFLMKHTN , give its measured Km value.
809.7
